Tested on: Bacillus cereus
test_details: Inhibition of Bacillus cereus PC-PLC assessed as residual activity at 10 uM using phosphatidylcholine as substrate measured after 1 hr by horseradish peroxidase/alkaline phosphatase/choline oxidase-coupled amplex red reagent based fluorescence assay relative to control
Would you kindly list Activity for each of these compounds?
Write the value in % as a bare number.

Incoming: Read off the recorded Activity for `CC(C)(C)OC(=O)N1CCN(c2ccc(NCc3ccc(Cl)cc3)cc2)CC1`
Outgoing: 53.3

Incoming: Specify measured Activity for `CN1CCN(c2ccc(NCc3ccc(O)cc3)cc2)CC1` .
Outgoing: 9.4

Incoming: Answer with reported Activity of `COC(=O)c1cc(NCc2ccccc2O)ccc1N1CCOCC1`
Outgoing: 38.6

Incoming: Answer with reported Activity of `CC(C)(C)OC(=O)N1CCN(c2ccc(NCc3ccccc3Br)cc2)CC1`
Outgoing: 35.6

Incoming: Determine its reported Activity: `CN1CCN(c2ccc(NCc3ccccc3)cc2)CC1`
Outgoing: 31.5

Incoming: Fill in Activity for record `Cc1ccccc1CNc1ccc(N2CCOCC2)cc1`
Outgoing: 2.2

Incoming: State its Activity: `Cc1ccc(CNc2ccc(N3CCOCC3)c(C(=O)O)c2)cc1`
Outgoing: 33.4

Incoming: Return the recorded Activity value; entry: `COc1ccccc1CNc1ccc(N2CCCCC2)cc1`
Outgoing: 9.9

Incoming: Give the reported Activity for this compound. `Fc1cccc(CNc2ccc(N3CCCCC3)cc2)c1`
Outgoing: 10.7

Incoming: Write down Activity measured for item `O=C(O)c1cc(NCc2ccccc2Cl)ccc1N1CCOCC1`
Outgoing: 11.5

Incoming: Give the reported Activity for this compound. `Clc1cccc(CNc2ccc(N3CCCCC3)cc2)c1`
Outgoing: 24.7

Incoming: For `c1ccc(CNc2ccc(N3CCCCC3)cc2)cc1` , write its Activity.
Outgoing: 8.1

Incoming: Tell me measured Activity for `O=C(O)c1cc(NCc2ccccc2C(F)(F)F)ccc1N1CCOCC1` please.
Outgoing: 34.1

Incoming: Provide only the value of recorded Activity for `COC(=O)c1cc(NCc2cccc(C)c2)ccc1N1CCOCC1`
Outgoing: 54

Incoming: Input `COC(=O)c1cc(NCc2ccc(C)cc2)ccc1N1CCOCC1` , output reported Activity.
Outgoing: 54.3

Incoming: Specify measured Activity for `Oc1ccccc1CNc1ccc(N2CCCCC2)cc1` .
Outgoing: 14.8

Incoming: Fill in reported Activity for this entry: `COC(=O)c1cc(NCc2cccc(Cl)c2)ccc1N1CCOCC1`
Outgoing: 65.6

Incoming: Please give the documented Activity of `Cc1ccccc1CNc1ccc(N2CCOCC2)c(C(=O)O)c1`
Outgoing: 35

Incoming: Tell me Activity reported for `COc1ccc(CNc2ccc(N3CCOCC3)cc2)cc1`
Outgoing: 3.2

Incoming: Give Activity for the following compound: `CC(C)(C)OC(=O)N1CCN(c2ccc(NCc3ccccc3C(F)(F)F)cc2)CC1`
Outgoing: 41.3

Incoming: Determine from records and report Activity for `COc1ccccc1CNc1ccc(N2CCOCC2)c(C(=O)O)c1`
Outgoing: 32.5

Incoming: Return value of Activity for input `CN1CCN(c2ccc(NCc3ccc(F)cc3)cc2)CC1` , no commentary.
Outgoing: 23.9

Incoming: Please list Activity recorded for the compound `COc1ccccc1CNc1ccc(N2CCOCC2)cc1`
Outgoing: 1.2

Incoming: Quickly give me recorded Activity for `Clc1ccc(CNc2ccc(N3CCCCC3)cc2)cc1`
Outgoing: 23

Incoming: Input `O=C(O)c1cc(NCc2ccccc2)ccc1N1CCOCC1` , output reported Activity.
Outgoing: 32.5

* * *

System: Bacillus cereus
test_details: Inhibition of Bacillus cereus PC-PLC assessed as residual activity at 10 uM using phosphatidylcholine as substrate measured after 1 hr by horseradish peroxidase/alkaline phosphatase/choline oxidase-coupled amplex red reagent based fluorescence assay relative to control
Hi all, reminder that labels come from Activity, split as bottom range = under 20%, center range = from 20% up to 40%, top range = 40% and over

Incoming: Hi, small favor: classify `Clc1ccc(CNc2ccc(N3CCOCC3)cc2)cc1` by its Activity when you get a moment.
Outgoing: bottom range

Incoming: Sort `COC(=O)c1cc(NCc2ccc(OC)cc2)ccc1N1CCOCC1` into one of the categories.
Outgoing: top range

Incoming: Category of `Cc1ccc(CNc2ccc(N3CCOCC3)cc2)cc1` :
Outgoing: bottom range

Incoming: Categorize the following entry: `Clc1ccccc1CNc1ccc(N2CCCCC2)cc1`
Outgoing: center range

Incoming: Band of `Clc1cccc(CNc2ccc(N3CCOCC3)cc2)c1` ?
Outgoing: bottom range

Incoming: Exercise: read the entry `CC(C)(C)OC(=O)N1CCN(c2ccc(NCc3ccccc3O)cc2)CC1` and state which class it falls under.
Outgoing: center range

Incoming: GET /class?item= `COC(=O)c1cc(NCc2cccc(OC)c2)ccc1N1CCOCC1`
Outgoing: top range

Incoming: // return the class label for `COC(=O)c1cc(NCc2ccc(F)cc2)ccc1N1CCOCC1`
Outgoing: top range

Incoming: Category of `CC(C)(C)OC(=O)N1CCN(c2ccc(NCc3cccc(Cl)c3)cc2)CC1` , please.
Outgoing: center range

Incoming: Which class holds `Cc1cccc(CNc2ccc(N3CCOCC3)c(C(=O)O)c2)c1` ?
Outgoing: center range

Incoming: Lab note: which band did `O=C(O)c1cc(NCc2ccc(Cl)cc2)ccc1N1CCOCC1` land in?
Outgoing: center range

Incoming: Band assignment needed for `CC(C)(C)OC(=O)N1CCN(c2ccc(NCc3ccccc3)cc2)CC1` please.
Outgoing: top range

Incoming: Band for the recorded Activity of `Clc1ccccc1CNc1ccc(N2CCNCC2)cc1` ?
Outgoing: center range

Incoming: // return the class label for `COc1cccc(CNc2ccc(N3CCOCC3)c(C(=O)O)c2)c1`
Outgoing: center range

Incoming: Band assignment needed for `CN1CCN(c2ccc(NCc3cccc(O)c3)cc2)CC1` please.
Outgoing: bottom range

Incoming: Hi, small favor: classify `COc1ccccc1CNc1ccc(N2CCN(C)CC2)cc1` by its Activity when you get a moment.
Outgoing: center range

* * *

Tested on: Bacillus cereus
test_details: Inhibition of Bacillus cereus PC-PLC assessed as residual activity at 10 uM using phosphatidylcholine as substrate measured after 1 hr by horseradish peroxidase/alkaline phosphatase/choline oxidase-coupled amplex red reagent based fluorescence assay relative to control
# if value of Activity reaches 30%, tag true (1); if it stays below, tag false (0)

Incoming: Check if Activity >= 30% (inclusive). Item: `COC(=O)c1cc(NCc2cccc(C(F)(F)F)c2)ccc1N1CCOCC1`
Outgoing: true (1)

Incoming: Given `FC(F)(F)c1ccccc1CNc1ccc(N2CCCCC2)cc1` , state whether its Activity is at least 30%.
Outgoing: true (1)

Incoming: Identify whether the reported Activity of the following compound is 30% or greater: `O=C(O)c1cc(NCc2ccccc2O)ccc1N1CCOCC1`
Outgoing: true (1)

Incoming: Answer whether Activity of `Brc1cccc(CNc2ccc(N3CCOCC3)cc2)c1` is greater than or equal to 30%.
Outgoing: false (0)

Incoming: Is Activity for `Oc1ccc(CNc2ccc(N3CCOCC3)cc2)cc1` at or above 30%?
Outgoing: false (0)

Incoming: Textbook exercise: given the entry `O=C(O)c1cc(NCc2ccc(C(F)(F)F)cc2)ccc1N1CCOCC1` , state whether its Activity is greater than or equal to 30%.
Outgoing: true (1)

Incoming: Could you please find out whether `COC(=O)c1cc(NCc2c(C)cc(C)cc2C)ccc1N1CCOCC1` has Activity that meets 30% or exceeds it?
Outgoing: true (1)

Incoming: Check the entry `O=C(O)c1cc(NCc2cccc(Br)c2)ccc1N1CCOCC1` : does Activity equal or exceed 30%?
Outgoing: false (0)

Incoming: Given the entry `Fc1ccc(CNc2ccc(N3CCCCC3)cc2)cc1` , answer whether its Activity meets or surpasses 30%.
Outgoing: false (0)

* * *

System: Bacillus cereus
test_details: Inhibition of Bacillus cereus PC-PLC assessed as residual activity at 10 uM using phosphatidylcholine as substrate measured after 1 hr by horseradish peroxidase/alkaline phosphatase/choline oxidase-coupled amplex red reagent based fluorescence assay relative to control
experimental_endpoint: Activity (%)
Report only the number, with the unit % understood.

Incoming: Tell me its Activity on Bacillus cereus: `CC(C)(C)OC(=O)N1CCN(c2ccc(NCc3ccccc3F)cc2)CC1`
Outgoing: 29.4

Incoming: Jot down Activity (Bacillus cereus) of `FC(F)(F)c1ccccc1CNc1ccc(N2CCNCC2)cc1` .
Outgoing: 30.4

Incoming: // fetch Activity for `CN1CCN(c2ccc(NCc3ccccc3Cl)cc2)CC1` ; system: Bacillus cereus
Outgoing: 29.7
